Reference source for all entries: patent US20170008928A1

# Test target: human cholecystokinin-2 receptor (CCK-2R) (Homo sapiens, UniProt P32239)
# Construct: host or cells: 1321-N1 cells (plasma membranes prepared by Evotec AG Hamburg)
# Sequence (P32239 1-447): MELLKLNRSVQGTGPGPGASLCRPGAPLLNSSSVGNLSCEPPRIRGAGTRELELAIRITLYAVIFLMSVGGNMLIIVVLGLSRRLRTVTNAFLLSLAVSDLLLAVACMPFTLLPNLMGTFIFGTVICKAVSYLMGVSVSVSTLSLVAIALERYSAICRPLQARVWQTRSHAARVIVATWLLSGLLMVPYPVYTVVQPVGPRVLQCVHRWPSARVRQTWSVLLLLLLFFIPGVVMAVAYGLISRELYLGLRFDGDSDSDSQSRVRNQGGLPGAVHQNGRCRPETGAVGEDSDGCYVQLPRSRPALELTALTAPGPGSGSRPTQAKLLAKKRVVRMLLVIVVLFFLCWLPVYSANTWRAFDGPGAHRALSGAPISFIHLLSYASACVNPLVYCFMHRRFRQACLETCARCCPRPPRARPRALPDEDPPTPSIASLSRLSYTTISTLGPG
# Protocol summary: In vitro potency on CCK-2R, whole cell functional assay (IP1 accumulation, IP-One HTRF)
# Type: cell-based
pEC50: −log10 of the molar value. Starred links: 1 amine or outer side, 2 acyl side, 3 side chain; linkers in the order of their positions; H or OH if unused. Non-standard residues stand in square brackets, D forms with d. Residues, ends and D or L forms follow the SMILES beside them. *: point of attachment. Phe(4-CH2SO3H) = N[C@@H](Cc1ccc(CS(=O)(=O)O)cc1)C(=O)O; sY = N[C@@H](Cc1ccc(OS(=O)(=O)O)cc1)C(=O)O; C18 diacid = O=C(O)CCCCCCCCCCCCCCCCC(=O)*; C16 diacid = O=C(O)CCCCCCCCCCCCCCC(=O)*; γGlu = O=C(O)[C@H](CCC(=O)[*:2])N[*:1]; NMeF = CN[C@@H](Cc1ccccc1)C(=O)O; dNMeD = CN[C@H](CC(=O)O)C(=O)O; Nle = CCCC[C@H](N)C(=O)O; AEEA = NCCOCCOCC(=O)O
Reported endpoint: pEC50

Field: example entries. Status: answers known.
response.value for CC(C)C[C@H](NC(=O)[C@H](Cc1ccc(OS(=O)(=O)O)cc1)NC(=O)[C@@H](N)CC(=O)O)C(=O)NCC(=O)N[C@@H](Cc1c[nH]c2ccccc12)C(=O)N[C@@H](CC(C)C)C(=O)N(C)[C@H](CC(=O)O)C(=O)N(C)[C@@H](Cc1ccccc1)C(N)=O [Example 64] (field: pEC50) = < 6.00

Entry CCCC[C@H](NC(=O)[C@H](Cc1c[nH]c2ccccc12)NC(=O)CNC(=O)[C@H](CC(C)C)NC(=O)[C@H](Cc1ccc(CS(=O)(=O)O)cc1)NC(=O)[C@H](CC(=O)O)NC(=O)COCCOCCNC(=O)COCCOCCNC(=O)CC[C@H](NC(=O)CCCCCCCCCCCCCCC(=O)O)C(=O)O)C(=O)N(C)[C@H](CC(=O)O)C(=O)N(C)[C@@H](Cc1ccccc1)C(N)=O [Example 6] ({C16 diacid-γGlu-AEEA-AEEA}-D[Phe(4-CH2SO3H)]LGW[Nle][dNMeD][NMeF]-NH2) ; pEC50 = < 6.00

Attention now turns to another entry.
The value of pEC50 measured for the molecule CC(C)C[C@H](NC(=O)[C@H](Cc1ccc(OS(=O)(=O)O)cc1)NC(=O)[C@H](CC(=O)O)NC(=O)COCCOCCNC(=O)COCCOCCNC(=O)CC[C@H](NC(=O)CCCCCCCCCCCCCCCCC(=O)O)C(=O)O)C(=O)NCC(=O)N[C@@H](Cc1c[nH]c2ccccc12)C(=O)N[C@@H](CCC(N)=O)C(=O)N(C)[C@H](CC(=O)O)C(=O)N(C)[C@@H](Cc1ccccc1)C(N)=O [Example 11] ({C18 diacid-γGlu-AEEA-AEEA}-D[sY]LGWQ[dNMeD][NMeF]-NH2) turned out to be < 6.00
